- protocol: Terminal half life in po dosed human
- Format: ADME, organism-based
- measurement parameters: in vivo, read-out: beta t1/2 (converted)
recorded metric: half-life (h)
Enter your answer as a number in h; do not include the unit.

[in] Note half-life for the compound shown: `Cc1cn2nc([C@@H]3CCCCN3C(=O)c3cc(Cl)ccc3NS(C)(=O)=O)cc2nc1N1CC[C@H](N)C1`
[out] 35

----------
- protocol: Ratio of AUC (0 to 12 hrs) in lung to AUC (0 to 12 hrs) in plasma of Sprague-Dawley rat at 1 mg/kg, iv
- Type: ADME, organism-based
- Set-up: dose 1 mg/kg, route intravenous
recorded metric: Kp

[in] Dear colleague, please send me the reported Kp for Cc1cn2nc([C@@H]3CCCCN3C(=O)c3cc(Cl)ccc3NS(C)(=O)=O)cc2nc1N1CC[C@H](N)C1 [PRESATOVIR] when you can.
[out] 26
